Molecular target: T1, recombinant human ASM protein (human, UniProt P17405 47-630)
T1 construct: Recombinant human ASM in solution; also called acid sphingomyelinase (ASM) protein
T1 sequence: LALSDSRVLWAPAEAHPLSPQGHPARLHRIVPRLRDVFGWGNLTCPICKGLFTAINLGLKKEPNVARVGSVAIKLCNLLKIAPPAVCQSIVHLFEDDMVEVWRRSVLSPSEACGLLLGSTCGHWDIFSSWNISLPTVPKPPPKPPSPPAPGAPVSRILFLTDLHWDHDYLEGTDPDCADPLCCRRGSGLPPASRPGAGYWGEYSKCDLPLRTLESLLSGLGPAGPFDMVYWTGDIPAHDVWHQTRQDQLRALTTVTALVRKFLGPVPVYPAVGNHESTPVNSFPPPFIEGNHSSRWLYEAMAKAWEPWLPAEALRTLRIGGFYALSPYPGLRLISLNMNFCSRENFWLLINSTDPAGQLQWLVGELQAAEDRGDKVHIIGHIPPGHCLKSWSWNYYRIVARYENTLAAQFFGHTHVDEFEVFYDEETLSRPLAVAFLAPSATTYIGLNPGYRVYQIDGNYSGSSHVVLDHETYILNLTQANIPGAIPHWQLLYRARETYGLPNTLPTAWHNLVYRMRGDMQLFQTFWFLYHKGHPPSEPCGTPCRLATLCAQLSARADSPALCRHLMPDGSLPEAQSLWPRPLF
Test: BLI (Octet), antibody on AHC sensor
Please respond with t when measured Kd is strictly beneath 0.2 nM, and with f in all other cases.

INSERT INTO measurements (binder, group) VALUES
  ('#9104a-E2 (antibody, human IgG4 S228P, lambda, V domains shown, VH of #9104v-H11 with VL of #9104v-L65; full-length IgG, lambda) VH: EVQLLESGGGLVQPGGSLRLSCAASGFTFSNYYMSWVRQAPGKGLEWVSGIYYGSGIPYYADSVKERFTISRDNSKNTLYLQMNSLRAEDTAVYYCARDTPGFDYWGQGTLVTVSS VL: QSVLTQPPSASGTPGQRVTISCTGSSSNIGNNAVNWYQQLPGTAPKLLIYYDYYQSSGVPDRFSGSKSGTSASLAISGLRSEDEADYYCGAWDYSLSAYVFGGGTKLTVLG', 'f'),
  ('#9104a-C7 (antibody, human IgG4 S228P, lambda, V domains shown, VH of #9104v-H31 with VL of #9104v-L23; full-length IgG, lambda) VH: EVQLLESGGGLVQPGGSLRLSCAASGFTFSNYYMSWVRQAPGKGLEWVSGVYYGSGTPYYADSVKGRFTISRDNSKNTLYLQMNSLRAEDTAVYYCARDTPGFDYWGQGTLVTVSS VL: QSVLTQPPSASGTPGQRVTISCTGSSSNIGNNAVNWYQQLPGTAPKLLIYYDQFRPSGVPDRFSGSKSGTSASLAISGLRSEDEADYYCGAWDYSLSAYVFGGGTKLTVLG', 't'),
  ('#9104a-E1 (antibody, human IgG4 S228P, lambda, V domains shown, VH of #9104v-H10 with VL of #9104v-L65; full-length IgG, lambda) VH: EVQLLESGGGLVQPGGSLRLSCAASGFTFSNYYMSWVRQAPGKGLEWVSGIYYGNGIPYYADSVKDRFTISRDNSKNTLYLQMNSLRAEDTAVYYCARDTPGFDYWGQGTLVTVSS VL: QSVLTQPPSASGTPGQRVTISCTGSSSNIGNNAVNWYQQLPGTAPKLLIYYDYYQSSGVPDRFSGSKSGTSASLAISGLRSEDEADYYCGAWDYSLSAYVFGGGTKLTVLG', 'f'),
  ('#9104a-B3 (antibody, human IgG4 S228P, lambda, V domains shown, VH of #9104v-H13 with VL of #9104v-L21; full-length IgG, lambda) VH: EVQLLESGGGLVQPGGSLRLSCAASGFTFSNYYMSWVRQAPGKGLEWVSGIYYGSGIPYYANSVKGRFTISRDNSKNTLYLQMNSLRAEDTAVYYCARDTPGFDYWGQGTLVTVSS VL: QSVLTQPPSASGTPGQRVTISCTGSSSNIGNNAVNWYQQLPGTAPKLLIYYDMFRPNGVPDRFSGSKSGTSASLAISGLRSEDEADYYCGAWDYSLSAYVFGGGTKLTVLG', 't'),
  ('#9104a-A2 (antibody, human IgG4 S228P, lambda, V domains shown, VH of #9104v-H11 with VL of #9104v-L20; full-length IgG, lambda) VH: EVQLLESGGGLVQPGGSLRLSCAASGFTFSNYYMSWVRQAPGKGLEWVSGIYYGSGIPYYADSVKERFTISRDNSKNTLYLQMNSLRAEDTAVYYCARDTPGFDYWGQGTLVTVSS VL: QSVLTQPPSASGTPGQRVTISCTGSSSNIGNNAVNWYQQLPGTAPKLLIYYDMFRPGGVPDRFSGSKSGTSASLAISGLRSEDEADYYCGAWDYSLSAYVFGGGTKLTVLG', 't');

Values from patent US20260201064A1
